For each entry below, report its tissue uptake at 24 h value.
runDescription: Ex vivo biodistribution in PC-3 tumor-bearing mice
experimentalContext: mouse, small intestine, Uptake in small intestine, 24 h post-injection
Numbered stars: 1 amine (or outer) side, 2 acyl side, 3 side chain; on linkers, the order of the positions; unused ones are H or OH. Square brackets hold non-standard residues; d marks the D form. Peptide text beside a SMILES is read from it. * marks the point of attachment. DOTA = O=C(O)CN1CCN(CC(=O)O)CCN(CC(=O)*)CCN(CC(=O)O)CC1; NMeH = CN[C@@H](Cc1c[nH]cn1)C(=O)O; X1 = O=C(CN1CCC(N[*:1])CC1)[*:2]; Tle = CC(C)(C)[C@H](N)C(=O)O; Thz = O=C(O)[C@@H]1CSCN1
Give bare numbers, in %ID/g.

| molecule | tissue uptake at 24 h, %ID/g |
| --- | --- |
| CC(C)C[C@H](NC(=O)[C@H](Cc1cnc[nH]1)N(C)C(=O)CNC(=O)[C@@H](NC(=O)[C@H](C)NC(=O)[C@H](Cc1c[nH]c2ccccc12)NC(=O)[C@H](CCC(N)=O)NC(=O)[C@@H](Cc1ccccc1)NC(=O)CN1CCC(NC(=O)CN2CCN(CC(=O)O)CCN(CC(=O)O)CCN(CC(=O)O)CC2)CC1)C(C)(C)C)C(=O)N1CSC[C@H]1C(N)=O [[^177Lu]Lu-LW01110, metal not drawn] | 0.3 |
| CC(C)C[C@H](NC(=O)[C@H](Cc1cnc[nH]1)N(C)C(=O)CNC(=O)[C@@H](NC(=O)[C@H](C)NC(=O)[C@H](Cc1c[nH]c2ccccc12)NC(=O)[C@H](Cc1c[nH]cn1)NC(=O)[C@@H](Cc1ccccc1)NC(=O)CN1CCC(NC(=O)CN2CCN(CC(=O)O)CCN(CC(=O)O)CCN(CC(=O)O)CC2)CC1)C(C)(C)C)C(=O)N1CSC[C@H]1C(N)=O [[^177Lu]Lu-LW01142, metal not drawn] ({DOTA}-[X1][dF]HWA[Tle]G[NMeH]L[Thz]-NH2) | 0.14 |

Prompt: Looking for the measured tissue uptake at 24 h of CC(C)C[C@@H](CN1CSC[C@H]1C(N)=O)NC(=O)[C@H](Cc1cnc[nH]1)NC(=O)CN(C)C(=O)[C@@H](NC(=O)[C@H](C)NC(=O)[C@H](Cc1c[nH]c2ccccc12)NC(=O)[C@H](CCC(N)=O)NC(=O)[C@@H](Cc1ccccc1)NC(=O)CN1CCC(NC(=O)CN2CCN(CC(=O)O)CCN(CC(=O)O)CCN(CC(=O)O)CC2)CC1)C(C)C [[^177Lu]Lu-TacsBOMB5, metal not drawn] , can you help?
Response: 0.09

----------
runDescription: Ex vivo biodistribution in PC-3 tumor-bearing mice
experimentalContext: mouse, large intestine, Uptake in large intestine, 24 h post-injection
Method: SPECT/CT imaging experiments were performed using an MILabs (Houten, The Netherlands) U-SPECT-II/CT scanner with a custom-made ultra-high-sensitivity big mouse collimator (2 mm pinhole size) following previously reported procedures. […] For ex vivo biodistribution studies, the mice were injected with ~2–6 MBq of the radioligand. […] Organs/tissues of interested were collected, weighed, and measured using an automatic gamma counter.
Numbered stars: 1 amine (or outer) side, 2 acyl side, 3 side chain; on linkers, the order of the positions; unused ones are H or OH. Square brackets hold non-standard residues; d marks the D form. Peptide text beside a SMILES is read from it. * marks the point of attachment. DOTA = O=C(O)CN1CCN(CC(=O)O)CCN(CC(=O)*)CCN(CC(=O)O)CC1; NMeH = CN[C@@H](Cc1c[nH]cn1)C(=O)O; X1 = O=C(CN1CCC(N[*:1])CC1)[*:2]; Tle = CC(C)(C)[C@H](N)C(=O)O; Thz = O=C(O)[C@@H]1CSCN1
Could you please report measured tissue uptake at 24 h for the items listed next?
Answers are plain numbers, in %ID/g.

Check out these entries, answers already filled in.
| compound | measureName | measurement |
| --- | --- | --- |
| CC(C)C[C@@H](CN1CSC[C@H]1C(N)=O)NC(=O)[C@H](Cc1cnc[nH]1)NC(=O)CN(C)C(=O)[C@@H](NC(=O)[C@H](C)NC(=O)[C@H](Cc1c[nH]c2ccccc12)NC(=O)[C@H](CCC(N)=O)NC(=O)[C@@H](Cc1ccccc1)NC(=O)CN1CCC(NC(=O)CN2CCN(CC(=O)O)CCN(CC(=O)O)CCN(CC(=O)O)CC2)CC1)C(C)C [[^177Lu]Lu-TacsBOMB5, metal not drawn] | tissue uptake at 24 h | 0.42 |
| CC(C)C[C@H](NC(=O)[C@H](Cc1cnc[nH]1)N(C)C(=O)CNC(=O)[C@@H](NC(=O)[C@H](C)NC(=O)[C@H](Cc1c[nH]c2ccccc12)NC(=O)[C@H](CCC(N)=O)NC(=O)[C@@H](Cc1ccccc1)NC(=O)CN1CCC(NC(=O)CN2CCN(CC(=O)O)CCN(CC(=O)O)CCN(CC(=O)O)CC2)CC1)C(C)(C)C)C(=O)N1CSC[C@H]1C(N)=O [[^177Lu]Lu-LW01110, metal not drawn] | tissue uptake at 24 h | 0.44 |

// next item, tissue uptake at 24 h requested
Prompt: Return reported tissue uptake at 24 h; argument: CC(C)C[C@H](NC(=O)[C@H](Cc1cnc[nH]1)N(C)C(=O)CNC(=O)[C@@H](NC(=O)[C@H](C)NC(=O)[C@H](Cc1c[nH]c2ccccc12)NC(=O)[C@H](Cc1c[nH]cn1)NC(=O)[C@@H](Cc1ccccc1)NC(=O)CN1CCC(NC(=O)CN2CCN(CC(=O)O)CCN(CC(=O)O)CCN(CC(=O)O)CC2)CC1)C(C)(C)C)C(=O)N1CSC[C@H]1C(N)=O [[^177Lu]Lu-LW01142, metal not drawn] ({DOTA}-[X1][dF]HWA[Tle]G[NMeH]L[Thz]-NH2)
Response: 0.3
